- Organism: Cavia porcellus
- Protocol Details: Tested for relaxation of guinea pig trachealis smooth muscle
- Assay type: functional
# label = true if IA < 90% else false

Below, 4 compounds whose answers are already recorded.
CC1(C)Oc2ccc(C#N)cc2[C@H](N2CCCC2=O)[C@H]1O (single isomer, unassigned) [(-)-CROMAKALIM] ... true
C/N=C(/NC#N)C1=CC(C)(C)Oc2ccc([N+](=O)[O-])cc21 ... true
CC/N=C(/NC#N)C1=CC(C)(C)Oc2ccc([N+](=O)[O-])cc21 ... true
C/N=C(/NC#N)C1=CC(C)(C)Oc2ccc(C#N)cc21 ... true

Is it true that IA reported for CC(N/C(=N\C#N)Nc1ccncc1)C(C)(C)C (configuration not stated) [PINACIDIL ANHYDROUS] is less than 90%? false

hey, is IA for CCN(C)/C(=N\C#N)C1=CC(C)(C)Oc2ccc([N+](=O)[O-])cc21 lower than 90% or not? true

---

Reported EC50 values for a set of compounds
- Species on record: Cavia porcellus
- Protocol Details: Tested for the ability to inhibit spontaneous tone in guinea pig trachealis by 50%, activity expresses as negative logarithm of molar concentration
- Type: functional

Consider the reported EC50 for these compounds:
C/N=C(/NC#N)C1=CC(C)(C)Oc2ccc(C#N)cc21 ... 646 nM
CC/N=C(/NC#N)C1=CC(C)(C)Oc2ccc([N+](=O)[O-])cc21 ... 170 nM
CCN(CC)/C(=N\C#N)C1=CC(C)(C)Oc2ccc([N+](=O)[O-])cc21 ... > 31600 nM

Please give measured EC50 of the following entry: C/N=C(/NC#N)C1=CC(C)(C)Oc2ccc([N+](=O)[O-])cc21 23.4 nM

Note EC50 for the compound shown: CCN(C)/C(=N\C#N)C1=CC(C)(C)Oc2ccc([N+](=O)[O-])cc21 178 nM

Recorded values, source ChEMBL document CHEMBL1152008.
